system: Streptococcus salivarius; assay: growth AUC relative to DMSO control (median of replicates) (fraction); higher = more growth (less inhibition), active = hit call of the paper; details: 20 µM; 24 h
quantity_name: growth AUC
I'd appreciate a reply containing only the number, no unit.

Challenge: Fill blank: measured growth AUC of the molecule "CCCCNC(=O)n1c(NC(=O)OC)nc2ccccc21" is ____.
Response given: 0.999

Challenge: Now the same for "Oc1cc(Cl)cc(Cl)c1"
Response given: 1

Challenge: Try this molecule next: "NC(=O)/N=C1/SCCN1Cc1ccc(Cl)nc1"
Response given: 1.04

Challenge: Could you do the same for CCN(CC)C(=O)C(C)Oc1cccc2ccccc12 (configuration not stated) , please?
Response given: 0.959

Challenge: Can you handle "Cc1ccc(NC(=O)c2snnc2C)cc1Cl" next?
Response given: 0.962

Challenge: Same thing, different molecule: C=CC1(C)OC(=O)N(c2cc(Cl)cc(Cl)c2)C1=O (configuration not stated)
Response given: 1.02

Challenge: Same again, this time with "CCOP(=S)(OCC)SCn1c(=O)oc2cc(Cl)ccc21"
Response given: 0.98

Challenge: Next molecule up: CC(=O)CC(c1ccco1)c1c(O)c2ccccc2oc1=O (configuration not stated)
Response given: 0.989

Challenge: Next: "COC(=O)NS(=O)(=O)c1ccc(N)cc1"
Response given: 0.893

---

test system: Coprococcus comes; assay: growth AUC relative to DMSO control (median of replicates) (fraction); higher = more growth (less inhibition), active = hit call of the paper; conditions: 20 µM; 24 h
Listed here are compounds together with their documented growth AUC.
Please give the numeric answer without any surrounding text.

Observe how each entry below is paired with its result.
Challenge: Form entry - test system: Coprococcus comes; read-out: growth AUC; compound: "Cc1ccccc1[N+](=O)[O-]"
Response given: 1

Challenge: What would you report for "Oc1cc(Cl)c(Cl)cc1Cl" ?
Response given: 0.983

Challenge: Now this one: "ClC1=C(Cl)C(Cl)(C2(Cl)C(Cl)=C(Cl)C(Cl)=C2Cl)C(Cl)=C1Cl"
Response given: 1.05

Challenge: Same read-out for CNC(=O)Oc1cc(C)c(S(C)=O)c(C)c1 (centres undefined) ?
Response given: 0.997

Next:
Challenge: Tell me reported growth AUC for "CNC(=O)Oc1cc(C)cc(C(C)C)c1" , tested with Coprococcus comes.
Response given: 1.01

Challenge: Also "CNc1cnn(-c2cccc(C(F)(F)F)c2)c(=O)c1Cl" ?
Response given: 0.978

Challenge: # iterate: "O=[N+]([O-])c1ccc(Oc2ccc(Cl)cc2Cl)cc1"
Response given: 0.988

Challenge: Input "CCCN(CCC)c1c([N+](=O)[O-])cc(S(N)(=O)=O)cc1[N+](=O)[O-]"
Response given: 0.973

Challenge: Another compound: "COP(=S)(OC)Oc1ccc(SC)c(C)c1"
Response given: 1.02

Challenge: Then what about the compound CCCSP(=S)(OCC)Oc1ccc(Cl)cc1Cl (centres undefined) ?
Response given: 1

---

system: Parabacteroides distasonis; test: growth AUC relative to DMSO control (median of replicates) (fraction); higher = more growth (less inhibition), active = hit call of the paper; settings: 20 µM; 24 h;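 active = AUC reduced over 20% with Padj below 0.05 in at least 2 of 3 replicates; inactive = otherwise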
// allowed return values: active, inactive

Challenge: Please share the test call associated with "CC1(C)[C@H](C(=O)O[C@H](C#N)c2cccc(Oc3ccccc3)c2)[C@@H]1C=C(Br)Br" .
Response given: inactive

Challenge: # iterate: "CC(=O)O.CCCCCCCCCCCCN=C(N)N"
Response given: inactive

Challenge: Follow-up entry: "O=C(NCCc1ncc(C(F)(F)F)cc1Cl)c1ccccc1C(F)(F)F"
Response given: inactive

Challenge: # repeat for CCSC(C)CC1CC(=O)C(/C(CC)=N/OC/C=C/Cl)=C(O)C1 (mixture of isomers)
Response given: inactive

---

# growth AUC listing for each entry below
system: Bacteroides dorei; experiment: growth AUC relative to DMSO control (median of replicates) (fraction); higher = more growth (less inhibition), active = hit call of the paper; conditions: 20 µM; 24 h
Form: value (number only, do not type unit).

Challenge: Form field: reported growth AUC of "Oc1c(Cl)c(Cl)cc(Cl)c1Cl"
Response given: 0.758

Challenge: // same read-out, input: "CN(C)NC(=O)CCC(=O)O"
Response given: 1.04

Challenge: Please answer likewise for "Clc1cc(Cl)c(Cl)c(Cl)c1"
Response given: 0.957

Challenge: Do the same for CNC(=O)ON=C(CS(C)=O)C(C)(C)C (configuration not stated) please
Response given: 1.01

Challenge: And the next one, CCC/C(=N\OCC)C1=C(O)CC(CC(C)SCC)CC1=O (configuration not stated) ?
Response given: 1.02

---
Challenge: Which growth AUC is reported for this compound? "CNC(=O)CSP(=O)(OC)OC"
Response given: 1.03

Challenge: Next entry: "COP(=S)(OC)Oc1ccc(Sc2ccc(OP(=S)(OC)OC)cc2)cc1"
Response given: 0.979

Challenge: How about "CCOP(=O)(OCC)ON1C(=O)c2cccc3cccc(c23)C1=O" ?
Response given: 0.754

Challenge: Record: "CON(C)C(=O)Nc1ccc(Cl)c(Cl)c1"
Response given: 1.04

Challenge: "O=C(O)c1ccc(=O)[nH]c1" ?
Response given: 1.02

Challenge: Let us now turn to C=CCC1=C(C)C(OC(=O)[C@@H]2[C@@H](C=C(C)C)C2(C)C)CC1=O (some centres not stated)
Response given: 1.05

Challenge: Try "CCOc1nc(NC)nc(NC(=O)NS(=O)(=O)c2ccccc2C(=O)OC)n1" next.
Response given: 1.02

---

system: Bacteroides uniformis; assay: growth AUC relative to DMSO control (median of replicates) (fraction); higher = more growth (less inhibition), active = hit call of the paper; conditions: 20 µM; 24 h;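 active = AUC reduced over 20% with Padj below 0.05 in at least 2 of 3 replicates; inactive = otherwise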
Answer with one of the outcomes given here: active, inactive

Challenge: Tell me the assay call for "CNC(=O)Oc1cccc2c1OC(C)(C)C2=O" please.
Response given: inactive

Others:
Challenge: Assay result, entry "COc1nc(C)nc(NC(=O)NS(=O)(=O)c2ccccc2CCC(F)(F)F)n1" — outcome?
Response given: inactive

Challenge: Next record, please: "O=C1C=CC(=O)C=C1"
Response given: inactive

Challenge: // repeat for "Cc1nc(N(C)C=O)nc(OC(=O)N(C)C)c1C" and report
Response given: inactive

---

test system: Bacteroides caccae; assay: growth AUC relative to DMSO control (median of replicates) (fraction); higher = more growth (less inhibition), active = hit call of the paper; details: 20 µM; 24 h
growth AUC listing for selected molecules.
Answer as a number with no unit attached.

// worked examples, growth AUC included
Challenge: Request the reported growth AUC associated with "COC(=O)C(Cl)Cl"
Response given: 0.968

Challenge: Now the molecule C=CCC1=C(C)C(OC(=O)C2C(C=C(C)C)C2(C)C)CC1=O (mixture of isomers)
Response given: 0.96

Challenge: Try the molecule "O=C(O)CCl"
Response given: 0.966

Further cases:
Challenge: Item "CCOc1nc(NC)nc(NC(=O)NS(=O)(=O)c2ccccc2C(=O)OC)n1" has what recorded growth AUC?
Response given: 1.01

Challenge: Now try "CCN(C(=O)n1nnn(-c2ccccc2Cl)c1=O)C1CCCCC1" .
Response given: 0.84

Challenge: # iterate: "CCOP(=O)(Sc1ccccc1)Sc1ccccc1"
Response given: 0.985

Challenge: Try ClC1=C(Cl)C2(Cl)C3C(Cl)C=CC3C1(Cl)C2(Cl)Cl (stereo unspecified) next.
Response given: 1.01

Challenge: Moving on to CC(=O)CC(c1ccc(Cl)cc1)c1c(O)c2ccccc2oc1=O (stereo unspecified)
Response given: 0.939

Challenge: Do the same for "O=C(O)c1ccc(Cl)nc1" please
Response given: 0.985

Challenge: Record: ClC1=C(Cl)C2(Cl)C3COCC3C1(Cl)C2(Cl)Cl (stereo unspecified)
Response given: 0.91

Challenge: Can you check "C[Si](Cn1cncn1)(c1ccc(F)cc1)c1ccc(F)cc1" next?
Response given: 0.891

Challenge: Queued: "CCCCc1c(C)nc(NCC)nc1OS(=O)(=O)N(C)C"
Response given: 1.01

Challenge: Also check CC(C)[C@@H](Nc1ccc(C(F)(F)F)cc1Cl)C(=O)OC(C#N)c1cccc(Oc2ccccc2)c1 (stereo partly specified)
Response given: 1.02

Challenge: And for "N#Cc1nn(-c2c(Cl)cc(C(F)(F)F)cc2Cl)c(N)c1S(=O)(=O)C(F)(F)F" ?
Response given: 0.823

Challenge: What do you have for "CCc1nn(C)c(C(=O)NCc2ccc(C(C)(C)C)cc2)c1Cl" ?
Response given: 0.94

Challenge: Subsequent entry: "CCOP(=S)(OCC)Oc1ccc([N+](=O)[O-])cc1"
Response given: 0.963

Challenge: Next entry: OC[C@@H](O)[C@H]1O[C@@H]2O[C@H](C(Cl)(Cl)Cl)O[C@@H]2[C@H]1O (mixture of isomers)
Response given: 1.02

Challenge: Next molecule: COC(=O)C(C)N(C(=O)c1ccco1)c1c(C)cccc1C (stereo unspecified)
Response given: 0.872

Challenge: Okay, and "Cc1ccc(N(SC(F)(Cl)Cl)S(=O)(=O)N(C)C)cc1" ?
Response given: 1

Challenge: Please give the result for CC1CNC(=S)N1 (stereo unspecified) too.
Response given: 1.03

Challenge: Likewise for FC(F)C(F)(F)OCC(Cn1cncn1)c1ccc(Cl)cc1Cl (stereo unspecified) ?
Response given: 0.967

Challenge: // next record "COC(=O)c1ccccc1S(=O)(=O)NC(=O)N(C)c1nc(C)nc(OC)n1"
Response given: 0.984

Challenge: Another: "CC#Cc1cc(C)nc(Nc2ccccc2)n1"
Response given: 1.01

Challenge: Same question, "COC(=O)/C(C)=C/OP(=S)(OC)OC" this time
Response given: 0.992

Challenge: Item: CP(=O)(O)CCC(N)C(=O)[O-].[NH4+] (stereo unspecified)
Response given: 1.04
